Data provenance is patent US7361769B2.

Molecular target: MCH receptor (Homo sapiens)
Construct: expressed in transfected cells; host or cells: CHO cells (membrane preparation)
Sequence (Q99705 whole entry): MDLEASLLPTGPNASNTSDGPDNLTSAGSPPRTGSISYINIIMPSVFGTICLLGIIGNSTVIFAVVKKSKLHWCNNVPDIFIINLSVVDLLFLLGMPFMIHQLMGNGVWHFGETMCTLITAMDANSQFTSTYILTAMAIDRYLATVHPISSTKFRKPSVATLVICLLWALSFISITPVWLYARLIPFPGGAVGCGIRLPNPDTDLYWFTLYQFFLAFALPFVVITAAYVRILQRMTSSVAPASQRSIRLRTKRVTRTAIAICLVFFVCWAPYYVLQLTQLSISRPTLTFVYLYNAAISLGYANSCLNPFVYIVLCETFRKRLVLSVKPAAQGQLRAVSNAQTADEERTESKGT
Test: MCH receptor binding assay ([125I]-MCH, SPA)
Details: membranes from CHO cells expressing the MCH receptor, read-out: Class (Ki)
Method: MCH Receptor Binding Assay: Membranes from CHO cells expressing the MCH receptor were prepared by lysing cells with 5 mM HEPES for 15 min at 4 C. Cell lysates were centrifuged ([…], 15 min) and the pellet was re-suspended in 5 mM HEPES. […] Nonspecific binding was determined by including 1 μM MCH in the binding reaction. […] Plates were then analyzed in a TOPCOUNT microplate scintillation counter (Packard). Data was analyzed and Ki values were determined using GraphPad Prism.
quantityMeasured: Ki

The reported Ki value, MCH receptor (Homo sapiens), for NCc1ncc(C2=CCC(N(CCN3CCCC3)C(=O)Nc3ccc(F)c(Cl)c3)CC2)s1 (stereo not shown) reads < 30 nM

// compound NCc1ccc(C2=CCC(N(CCN3CCCC3)C(=O)Nc3ccc(F)c(Cl)c3)CC2)s1 (stereo not shown) , assay MCH receptor (Homo sapiens), Ki value: < 30 nM

// returns Ki for `NCc1ncc([C@]23CC[C@@H](N(CCN4CCCC4)C(=O)Nc4ccc(F)c(C(F)(F)F)c4)[C@H]2C3)s1` with MCH receptor (Homo sapiens); value = > 100 nM

Now consider a different compound.
I looked up NCc1ncc([C@]23CC[C@@H](N(CCCN4CC[C@@H](O)C4)C(=O)Nc4ccc(F)c(C(F)(F)F)c4)C2C3)s1 (stereo partly shown) and its Ki for MCH receptor (Homo sapiens) was < 30 nM

---

Target: hERG channels (Homo sapiens)
Construct: expressed in transfected cells
Test: Herg-Rb two phase screen (rubidium efflux)
Type: cell-based
Conditions: test article at 1.5 μg/ml; CHO cells expressing hERG; relative to complete block with 10 μM dofetilide
Below is a list of entries, each paired with its recorded herg-Rb 1.5 μg/mL (%) value.
Give your result in % as a bare value.

Reported herg-Rb 1.5 μg/mL (%) of NCc1cnc(C2=CCC(N(CCN3CCCC3)C(=O)Nc3ccc(F)c(Cl)c3)CC2)s1 (stereo not shown) [Example 11] : 9

Entry O=C(Nc1ccc(F)c(Cl)c1)N(CCN1CCCC1)C1CC=C(c2ccc(CN3CC[C@H](O)C3)s2)CC1 (stereo partly shown) [Example 5] — recorded herg-Rb 1.5 μg/mL (%) = 0

So for C[C@@H]1CN(CCCN(C(=O)Nc2ccc(F)c(C(F)(F)F)c2)[C@@H]2CC[C@]3(c4cnc(CN)s4)CC23)[C@@H](C)CN1 (stereo partly shown) [Example 16] , the logged herg-Rb 1.5 μg/mL (%) turned out to be −11

Let us move to another entry and its herg-Rb 1.5 μg/mL (%).
Looking up NCc1ncc([C@]23CC[C@@H](N(CCCN4CC[C@@H](O)C4)C(=O)Nc4ccc(F)c(C(F)(F)F)c4)C2C3)s1 (stereo partly shown) [Example 18] , I found its herg-Rb 1.5 μg/mL (%) recorded as −5

---

Target: hERG channels (Homo sapiens, UniProt Q12809)
Construct: expressed in transfected cells
Sequence (Q12809 whole entry): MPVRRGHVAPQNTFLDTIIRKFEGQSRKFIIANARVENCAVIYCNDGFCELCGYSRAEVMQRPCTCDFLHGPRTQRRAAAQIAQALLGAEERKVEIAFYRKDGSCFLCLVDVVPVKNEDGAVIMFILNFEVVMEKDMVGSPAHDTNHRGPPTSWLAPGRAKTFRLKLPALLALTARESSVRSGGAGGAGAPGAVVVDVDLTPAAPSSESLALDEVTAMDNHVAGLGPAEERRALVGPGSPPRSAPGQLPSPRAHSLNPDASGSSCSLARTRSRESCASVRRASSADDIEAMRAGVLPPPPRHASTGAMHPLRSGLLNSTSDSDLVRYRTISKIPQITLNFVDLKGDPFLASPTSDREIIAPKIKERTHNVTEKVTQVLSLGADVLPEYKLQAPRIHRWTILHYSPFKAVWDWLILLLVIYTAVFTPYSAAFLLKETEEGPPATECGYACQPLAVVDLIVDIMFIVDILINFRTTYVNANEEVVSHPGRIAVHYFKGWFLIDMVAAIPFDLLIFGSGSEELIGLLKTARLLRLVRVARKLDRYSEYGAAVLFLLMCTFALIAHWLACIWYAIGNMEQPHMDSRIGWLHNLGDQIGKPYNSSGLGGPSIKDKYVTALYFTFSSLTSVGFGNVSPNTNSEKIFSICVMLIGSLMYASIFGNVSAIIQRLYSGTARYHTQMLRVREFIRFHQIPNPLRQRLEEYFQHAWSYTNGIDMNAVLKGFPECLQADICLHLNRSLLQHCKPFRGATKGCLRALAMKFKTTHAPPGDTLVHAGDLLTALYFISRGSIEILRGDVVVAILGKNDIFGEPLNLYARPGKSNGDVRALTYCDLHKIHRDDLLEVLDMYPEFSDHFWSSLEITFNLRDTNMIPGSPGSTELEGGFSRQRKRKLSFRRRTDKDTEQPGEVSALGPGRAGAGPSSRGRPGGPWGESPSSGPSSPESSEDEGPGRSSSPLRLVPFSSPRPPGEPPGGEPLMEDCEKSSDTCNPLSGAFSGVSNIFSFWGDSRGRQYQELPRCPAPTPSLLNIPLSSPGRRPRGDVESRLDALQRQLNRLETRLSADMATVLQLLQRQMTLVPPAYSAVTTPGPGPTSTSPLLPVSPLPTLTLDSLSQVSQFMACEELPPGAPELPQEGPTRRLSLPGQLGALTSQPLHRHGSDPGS
Assay: Herg-Rb two phase screen (rubidium efflux)
Format: cell-based
Settings: test article at 1.5 μg/ml; CHO cells expressing hERG; relative to complete block with 10 μM dofetilide
Description: Herg-Rb data (μg/mL) (%) was determined by the following two phase screen. The first phase is a cell-handling phase in which cells are loaded with rubidium, drugs are added and efflux initiated by KCl-depolarization. […] Supernatants are collected after 5 minutes and rubidium content is measured using a flame atomic absorbance spectrometer with a robot for sampling from 96-well plates (ICR-8000, Aurora Biomed Inc., Vancouver, British Columbia). […]
quantityMeasured: herg-Rb 1.5 μg/mL (%)
Response body: numeric value in %, unit text excluded.

The measured herg-Rb 1.5 μg/mL (%) associated with NCc1ccc(C2=CCC(N(CCN3CCCC3)C(=O)Nc3ccc(F)c(Cl)c3)CC2)s1 (stereo not drawn) [Example 1] reads 22

Others:
Entry NCc1ncc(C2=CCC(N(CCN3CCCC3)C(=O)Nc3ccc(F)c(Cl)c3)CC2)s1 (stereo not drawn) [Example 7] — recorded herg-Rb 1.5 μg/mL (%) = −1

Record C[C@@H]1CN(CCCN(C(=O)Nc2cc(Cl)nc(Cl)c2)[C@@H]2CC[C@]3(c4cnc(CN)s4)CC23)[C@@H](C)CN1 (stereo partly drawn) [Example 19] . Reported herg-Rb 1.5 μg/mL (%): −10
